# credit: the supplement of paper PMC10567573

The variants listed here are annotated with their protein stability index.
B1: NP_015628.1 (parent)
chain: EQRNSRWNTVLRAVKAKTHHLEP

variants of: B1; experiment: protein stability index of a GFP-peptide fusion (GPS, HEK-293T) (PSI 1-6); higher = more stable; conditions: c terminus: native;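 also: lentivirally expressed fusion library, cells FACS-sorted into six equal-sized GFP/DsRed ratio bins, PSI computed from sequencing read fractions per bin weighted by bin number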
Please reply with the value in numeric form only.

mutationlabel=T9D numericreadout=2.29

Could you share which protein stability index value was measured for `K15C` ?
3.1

Could you share which protein stability index value was measured for `H20N` ?
3.47

Could you share which protein stability index value was measured for `T9Q` ?
3
